- System: CEM cells HIV-1 protection, formazan growth assay
- assayProcedure: NCI AIDS Antiviral Assay
The source made the active and inactive calls.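 Rule for the calls: active = compounds giving half or more protection of infected cells from virus-caused growth loss, again on retest; inactive = the rest.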
measurementName: outcome

O=C(Nc1c(Cl)cc([N+](=O)[O-])cc1Cl)C(=O)C(C(=O)c1ccncc1)C1OC(=O)c2ccccc21 (stereo not given) ... inactive
c1ccc(-c2cc(N3CCOCC3)c3ccccc3n2)cc1 ... inactive
C[C@]12CC(C#N)C(=O)C(O)=C1CC[C@@H]1C2CC[C@@]2(C)C1CC[C@@H]2O (stereo not given in full) ... inactive
N.N.N.N.O=C([O-])CCl.O=C([O-])CCl.[Co+3].[O-][Cl+3]([O-])([O-])[O-] ... inactive
Cc1cccc2c(O)cc(=O)oc12 ... inactive
O=C1C2c3[nH]c4ccccc4c3C3CCC(c4ccccc4)CC3C2C(=O)N1c1ccccc1 (stereo not given) ... inactive
O=[P+](O)c1ccsc1 ... inactive
Cc1cc(O)c2c(O)c3c(O)cc(=O)c(-c4c(=O)cc(O)c5c(O)c6c(O)cc(C)oc6cc45)c3cc2o1 ... inactive
CCc1c(N=[N+]=[N-])c2ccccc2oc1=O ... inactive

# input molecule: `Nc1ccccc1Sc1ccc(Cl)cc1` ; wanted: its outcome inactive

* * *

- Tested on: CEM cells HIV-1 protection, formazan growth assay
- assayProcedure: NCI AIDS Antiviral Assay
- conditionNotes: measured here: growth of uninfected CEM cells
pIC50: −log10 of the molar value. Where a SMILES comes first, the peptide text is derived from it. The star is where a group is joined. Myristoyl = CCCCCCCCCCCCCC(=O)*
measurementName: pIC50

# input compound: `Cc1cccc(NC(=O)CSc2nnc(Cc3ccccc3)o2)c1` ; wanted: its pIC50 < 3.27

// same read-out, input: CCCCCCCCCCCCCC(=O)NCC(=O)NC(CC(N)=O)C(=O)NC(C)C(=O)NC(C)C(=O)NC(C)C(=O)NC(C)C(=O)NC(CCCCN)C(=O)NC(CCCCN)C(=O)NCC(=O)NC(Cc1ccc(O)cc1)C(N)=O (stereo unspecified) (Myristoyl-GNAAAAKKGY-NH2; configuration not given here) < 3.67

// same read-out, input: `[N-]=[N+]=C(C(=O)C(=[N+]=[N-])C(=O)c1ccccc1)C(=O)c1ccccc1` < 3.95

// same read-out, input: `COc1cc2oc(-c3ccccc3)cc(=O)c2c(O)c1C` < 4.48

// same read-out, input: COC1/C=C/OC2(C)Oc3c(C)c(O)c4c(O)c(c(/C=N/N5CC(C)N(Cc6ccccc6)C(C)C5)c(O)c4c3C2=O)NC(=O)C(C)=C/C=C/C(C)C(O)C(C)C(O)C(C)C(OC(C)=O)C1C (stereo unspecified) 5.51

// same read-out, input: `O=C(CSCc1cc(S(=O)(=O)O)c2cccnc2c1O)Nc1ccc(/C=C/c2ccc(NC(=O)CSCc3cc(S(=O)(=O)O)c4cccnc4c3O)cc2S(=O)(=O)O)c(S(=O)(=O)O)c1` < 3.70

* * *

- Test system: CEM cells HIV-1 protection, formazan growth assay
- assayProcedure: NCI AIDS Antiviral Assay
- conditionNotes: measured here: growth of uninfected CEM cells
Would you mind telling me the reported pIC50 of each entry?
# pIC50 = -log10(concentration in molar units)

# input compound: `Cc1cc(=O)n2c(nc3cc([N+](=O)[O-])ccc32)s1` ; wanted: its pIC50 3.73

// same read-out, input: `C/C(=N\NC(=O)c1ccncc1)c1cccc(/C(C)=N/NC(=O)c2ccncc2)n1.O=S(=O)([O-])[O-].[Fe+2]` 4.79

// same read-out, input: `COC(=N)c1ncn(Cc2ccccc2)c1N` 3.80

* * *

- Test system: CEM cells HIV-1 protection, formazan growth assay
- assayProcedure: NCI AIDS Antiviral Assay
pEC50: −log10 of the molar value.
Would you mind telling me the reported pEC50 of each entry?

# input molecule: `CCOC(=O)c1sc2c(c1OC(=O)c1ccccc1)c(=O)n(-c1ccccc1)c(=S)n2-c1ccccc1` ; wanted: its pEC50 < 3.70

// same read-out, input: CC(C)C1=CC23CCC4C(C)(C(=O)O)CCCC4(C)C2CC1C1C(=O)N(c2ccccc2N2C(=O)C4C5CC6C7(C)CCCC(C)(C(=O)O)C7CCC6(C=C5C(C)C)C4C2=O)C(=O)C13 (stereo unspecified) < 3.85

// same read-out, input: `COc1ccc(N=C2C(=Nc3ccc(OC)cc3)N(c3ccccc3[N+](=O)[O-])C(=S)N2c2ccc(OC)cc2)cc1` < 3.70

// same read-out, input: `O=C(c1ccco1)N(C(=S)OCc1ccccn1)c1ccccc1` < 3.70

// same read-out, input: O=C(CC1NCCS1)OCc1ccc(Br)cc1 (stereo unspecified) 4.72

// same read-out, input: `O=C1c2ccccc2S(=O)(=O)c2c1cccc2[N+](=O)[O-]` < 3.70

// same read-out, input: `O=c1oc2ccccc2c(O)c1C(c1ccc2ccccc2c1)c1c(O)c2ccccc2oc1=O` < 3.70

// same read-out, input: `N#Cc1cc2cccn2c2c1cnn2-c1ccccc1` < 3.70

// same read-out, input: CC1[C@@H](OCc2ccccc2)COC(=O)N1Cc1ccccc1 (stereo partly specified) < 3.70

// same read-out, input: `Cc1nc(Cl)nc2c1C(=O)Nc1ccccc1N2` < 4.28

// same read-out, input: CCC1Sc2cc(OC)cc3c2N(CCN3)C1=O (stereo unspecified) < 3.70

// same read-out, input: `Cc1ccc2nc(-c3ccccc3[N+](=O)[O-])[nH]c2c1` < 3.57

// same read-out, input: `Cc1ccc(/C=C2\CNC/C(=C\c3ccc(C)cc3)C2=O)cc1` < 5.40

// same read-out, input: CC1=CCS(=O)(=O)C1C(O)C1=C(C)CCCC1(C)C (stereo unspecified) < 3.70

// same read-out, input: `C(=Nc1cnc2ccccc2c1)c1ccccn1` < 3.39

// same read-out, input: CCN(CC)CC(C)Nc1cc(C)nc2c1ccc1c2ccc2c(NC(C)CN(CC)CC)cc(C)nc21 (stereo unspecified) < 3.42

// same read-out, input: Cc1cc(=O)[nH]c(NNC(C#N)c2ccco2)n1 (stereo unspecified) < 3.42

// same read-out, input: `CC(C)c1cccc(C(C)C)c1NC1=CC(=O)C(=O)c2ccccc21` < 4.52

// same read-out, input: `N#C/C(=C\N1CC(=O)NC1=S)C(=O)c1ccc2ccccc2c1` < 3.70

// same read-out, input: `CCCCn1c(=O)cc(C(=O)O)c2ccccc21` < 3.70

// same read-out, input: `CCOC(=O)/C=C(\N=P(c1ccccc1)(c1ccccc1)c1ccccc1)C(F)(F)C(F)(F)C(F)(F)C(F)(F)C(F)(F)F` < 3.70

* * *

- Tested on: CEM cells HIV-1 protection, formazan growth assay
- assayProcedure: NCI AIDS Antiviral Assay
- conditionNotes: measured here: growth of uninfected CEM cells
measurementName: IC50

What value of IC50 on CEM cells HIV-1 protection, formazan growth assay does CCOC(=O)C1(c2ccccc2)CCCNCC1 (stereo not given) have? > 112 µM

// same read-out, input: CN(C)c1cccc2c1C(=O)C=CC21c2ccc(N(C)C)c3c(N(C)C)ccc(c23)C(c2ccccc2)C1c1ccccc1 (stereo not given) 7.08 µM

// same read-out, input: CN(C)c1ccc(C2ON=C(c3ccccc3)N2C23CC4CC(CC(C4)C2)C3)cc1 (stereo not given) 24 µM

// same read-out, input: CCCCCCCCCCCCCC1CCC(CC)N1 (stereo not given) > 331 µM

// same read-out, input: `COc1ccc(C(=O)N2CCN(c3ccc4[nH]c(=O)oc4c3)CC2)cc1` > 200 µM

* * *

Would you mind telling me the reported EC50 of each entry?
- System: CEM cells HIV-1 protection, formazan growth assay
- assayProcedure: NCI AIDS Antiviral Assay

# input compound: `CCOc1ccccc1NC(=O)/C=C1\NC(=O)CS1` ; wanted: its EC50 > 158 µM

// same read-out, input: `Cc1cc(S(=O)(=O)Nc2nc(Nc3ccccc3)nn2C)c(S)cc1Cl` > 200 µM

// same read-out, input: `Cc1ccc(-c2c3nc(c(-c4ccc(C)cc4)c4ccc([nH]4)c(-c4ccc(C)cc4)c4nc(c(-c5ccncc5)c5ccc2[nH]5)C=C4)C=C3)cc1.Cc1ccc(-c2c3nc(c(-c4ccc(C)cc4)c4ccc([nH]4)c(-c4ccc(C)cc4)c4nc(c(-c5ccncc5)c5ccc2[nH]5)C=C4)C=C3)cc1.O=S(=O)([O-])C(F)(F)F.[Pd+2].c1ccc([PH+](CCC[PH+](c2ccccc2)c2ccccc2)c2ccccc2)cc1` > 50.1 µM

// same read-out, input: COCCOCOC(CCCCO)c1cc(C)c(O[Si](C)(C)C(C)(C)C)c(C)c1 (stereo not given) > 50.1 µM

// same read-out, input: `Cc1c2ncccc2cc2oc3ccccc3c(=O)c12` > 200 µM

// same read-out, input: `S=C(Nc1ccccn1)Nc1ccccc1Cl` > 200 µM

// same read-out, input: CC1(CO)CC(O)C(n2cnc3c(N)ncnc32)O1 (stereo not given) > 5.13 µM

// same read-out, input: `CC(=O)NCCSSCc1ccccc1CS(=O)O` > 200 µM

// same read-out, input: C/C(=N\NC(N)=O)C(CN1CCCCC1)C(c1ccccc1)c1c(O)c2ccccc2oc1=O (stereo not given) > 87.1 µM

// same read-out, input: `CCC/C(Cl)=N/OC(=O)Nc1cccc(F)c1` > 20 µM

// same read-out, input: S=C1Nc2ccccc2SC1c1ccccc1 (stereo not given) > 200 µM

// same read-out, input: `COc1nccnc1NS(=O)(=O)c1ccc(N)cc1` > 200 µM

// same read-out, input: CC(=O)OC12C3C4C1C1C2C3C41OC(C)=O (stereo not given) > 200 µM

// same read-out, input: `O=C1SC(c2ccccc2)(c2ccccc2)c2cscc21` > 61.7 µM

// same read-out, input: `COc1ccc2c(c1)c(=O)c1c(NCCN(C)C)ccc3c(=O)n(CCN(C)C)c(=O)n2c31` 0.0204 µM

// same read-out, input: `O=C(O)CCSCCCCCCCCCCSCCC(=O)O` > 74.1 µM

// same read-out, input: COC(=O)C1=NOC2C(=O)N(c3ccccc3)C(=O)C12 (stereo not given) > 200 µM

// same read-out, input: `C[C@H]1CCC/C=C/[C@@H]2C[C@H](OC(=O)CN(C)C)C[C@H]2[C@H](O)/C=C/C(=O)O1` > 2 µM

// same read-out, input: N#CC(C(=O)CCC(=O)C(C#N)c1ccccc1)c1ccccc1 (stereo not given) > 398 µM

// same read-out, input: `CC(C)N=c1sc(-c2ccccc2)c(C#N)c(=O)n1C(C)C` > 75.9 µM

// same read-out, input: OC1NC2CC3NC(O)C(O)NC3CC2NC1O (stereo not given) > 100 µM

// same read-out, input: `CCOC(=O)C[P+](c1ccc(OC)cc1)(c1ccc(OC)cc1)c1ccc(OC)cc1` > 200 µM

// same read-out, input: `C=C(C)CCNCC/C=C\[Si](C)(C)C` > 1170 µM

// same read-out, input: `COc1cccc(OC)c1NC(=O)C(=O)Nn1c(NNC(=O)c2ccncc2)nc2ccccc2c1=O` > 501 µM

// same read-out, input: `Cc1cc(N(CCC#N)CCC#N)ccc1/C(Sc1ccccc1)=C(\NC(=O)/C=C/c1ccccc1)C(=O)Sc1ccccc1` > 21.4 µM

// same read-out, input: `C[N+]1(C)CCC(C#N)(c2ccccc2)CC1` > 724 µM

// same read-out, input: CNC(=O)OC(COC)CN1CCN(c2ccccc2C)CC1 (stereo not given) > 200 µM

// same read-out, input: `COc1ccc(-c2nc3c(nc2-c2ccc(OC)cc2)C(N)=NS(=O)(=O)N3)cc1` > 166 µM

// same read-out, input: O=C1C=C2C=CC3CC2(O1)C1CCCCN31 (stereo not given) > 1150 µM

// same read-out, input: Cc1cn(C2CC(N=[N+]=[N-])C(COP(=O)(OCC(=O)c3ccco3)OCC(=O)c3ccco3)O2)c(=O)[nH]c1=O (stereo not given) 0.00457 µM

// same read-out, input: O=C(NN1C(=O)C(Cl)C1c1ccc(O)cc1)c1ccccc1O (stereo not given) > 21.9 µM

// same read-out, input: CC1C2(C)OC(=N)C(C#N)(C(C)O2)C1(C#N)C#N (stereo not given) > 200 µM

// same read-out, input: `COc1ccc(Nc2ccc3ccccc3c2-c2c(O)ccc3ccccc23)cc1` > 200 µM

// same read-out, input: `COc1ccc(C[C@@H]2CN(C(=O)c3ccccc3)[C@H](Cc3ccc(O)cc3)CN2C(=O)c2ccccc2)cc1Br` > 200 µM

// same read-out, input: `COC(=O)[C@](C)(Cc1ccccc1)NC(=O)[C@@H](C)N1[C@@H](c2ccccc2)COC1(C)C` > 200 µM

// same read-out, input: `Cc1[nH]c(=O)[nH]c1C(=O)c1ccc(-n2ccnc2)cc1` > 14.1 µM

// same read-out, input: CC(=O)OCC1OC(n2c3c(cc(C#N)c2=S)CCCCCC3)C(OC(C)=O)C(OC(C)=O)C1OC(C)=O (stereo not given) > 200 µM

// same read-out, input: `Nc1nc(N)nc(Nc2ccc([As](=O)(O)O)cc2)n1` > 21.9 µM

// same read-out, input: COC(=O)C(Cc1ccc(Oc2cc(CC(NC(=O)c3ccccc3)C(=O)OC)ccc2OC)cc1)NC(=O)c1ccccc1 (stereo not given) > 200 µM

// same read-out, input: CCC(=O)C(C)C1=Nc2nnc(CCCCCCCc3nnc4n3C(=O)C(C(C)C(=O)CC)=N4)n2C1=O (stereo not given) > 1.07 µM
